The measured values listed here are drawn from PubChem BioAssay (NCATS).

Assay: NFAT Signaling Pathway (AID 444);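 further: carbachol stimulus at about its EC50 of 1 µM final; on the % scale 0 is the no-effect control and ±100 the full control effect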
Conditions: Jurkat NFAT-bla M1, carbachol, beta-lactamase ratio, 5 h; at 7.69 µM (top of the series) unless noted
Inconclusive results are not listed. Active and inactive are the calls of the source. The call rests on the fitted dose curve; in most records, active means well fitted curve in either direction with a large enough effect (not every such curve was filed as active); inconclusive means small, poorly fitted or top-dose-only effect, or another doubt; inactive means flat fitted curve, though single readings scatter.
Measured Metric: activity change, negative = inhibition

* N[C@H](CCC(=O)NCS(=O)(=O)O)C(=O)O | 4.56% [at 38 µM] (inactive)
* CN(C)CN1CSC(=S)N(CN(C)C)C1 | 1.69% (inactive)
* Nc1nc(-c2ccccc2)c(-c2ccccc2)c(-c2nc(N)nc(-c3ccccc3)c2-c2ccccc2)n1 | 16.1% (inactive)
* NC(N)=NCCCC(=O)O | 13.2% (inactive)
* Cc1ccc(C)c(NC(=O)NCc2ccc(Cl)cc2)c1 | -4.37% (inactive)
* NC(=S)SCCC(=O)O | 14.5% (inactive)
* COc1ccc(-n2c(=O)c(C)nc3cnc(Nc4cccc(OC)c4)nc32)cc1 | 10.5% (inactive)
* NNS(=O)(=O)c1cc(C(=O)O)cc(C(=O)O)c1 | 14.9% (inactive)

Look up activity change, negative = inhibition for the entries below, preserving their order.
1. N[C@@H](CSCc1ccc(I)cc1)C(=O)O
2. CO[C@@H]1/C=C\O[C@]2(C)Oc3c(C)c(O)c4c(O)c(cc(O)c4c3C2=O)NC(=O)/C(C)=C\C=C/[C@H](C)[C@@H](O)[C@H](C)[C@H](O)[C@H](C)[C@H](OC(C)=O)[C@@H]1C

Outgoing:
0.82% (inactive)
-26.6% (inactive)

// field: activity change, negative = inhibition; key: c1ccc(C[C@@H](Nc2cccnc2)c2ccccc2)cc1 ; value = -11.2% (inactive)

====

Assay: NFAT Signaling Pathway (AID 444);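 further: carbachol stimulus at about its EC50 of 1 µM final; on the % scale 0 is the no-effect control and ±100 the full control effect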
Conditions: Jurkat NFAT-bla M1, carbachol, beta-lactamase ratio, 5 h; at 7.69 µM (top of the series) unless noted
Inconclusive results are not listed.
So I've got a bunch of compounds here, and I need their activity change, negative = inhibition values.
One number for each entry, in %.

Use the examples below as a reference point.
* OC[C@@H]1CCC[C@H](n2cnc3c(=S)nc[nH]c32)O1 | 24.8
* NC(=O)[C@@H]1CCCNC1 | 6.45
* N#C[C@H]1CN[C@H](N)N[C@@H]1N | 6.86
* CN1CCN(CN2C(=O)C3C4C=CC(C3C2=O)C2C3C(=O)N(CN5CCN(C)CC5)C(=O)C3C42)CC1 (stereo unspecified) | 4.36
* CN(C)CCCCN1CCc2c(n(C)c3ccccc23)C1=O | 5.6

// field: activity change, negative = inhibition; key: O=C(O)CC12C[C@H]3C[C@@H](CC(O)(C3)C1)C2 ; value = -2.52
